Known minimal effective dose of a selection of molecules
Tested on: Rattus norvegicus
test-details: Analgesic activity in Sprague-Dawley rat assessed as minimal dose for loss of pedal withdrawal reflex at 20 mg/kg/min followed by dose reduction to 6.7 mg/kg/min dosed via infusion
Assay type: functional
conditions: read-out: MED

What is its minimal effective dose for Rattus norvegicus? Entry: CNC1(c2ccccc2Cl)CCCCC1=O (stereo unspecified)
28 mg/kg

What is its minimal effective dose for Rattus norvegicus? Entry: COC(=O)CNC1(c2ccccc2Cl)CCCCC1=O (stereo unspecified)
> 200 mg/kg

What is its minimal effective dose for Rattus norvegicus? Entry: CC(C)OC(=O)CNC1(c2ccccc2Cl)CCCCC1=O (stereo unspecified)
> 200 mg/kg

What is its minimal effective dose for Rattus norvegicus? Entry: COC(=O)CCCCCCNC1(c2ccccc2Cl)CCCCC1=O (stereo unspecified)
> 200 mg/kg

What is its minimal effective dose for Rattus norvegicus? Entry: COCCOC(=O)CCCCNC1(c2ccccc2Cl)CCCCC1=O (stereo unspecified)
> 200 mg/kg

What is its minimal effective dose for Rattus norvegicus? Entry: COC(=O)C(C)(C)CCCNC1(c2ccccc2Cl)CCCCC1=O (stereo unspecified)
> 200 mg/kg

###

Tested on: Rattus norvegicus
test-details: Analgesic activity in Sprague-Dawley rat assessed as minimal dose for loss of pedal withdrawal reflex at 20 mg/kg/min followed by dose reduction to 6.7 mg/kg/min dosed via infusion
Type: functional
conditions: read-out: MED
Known minimal effective dose of a selection of compounds

Please review the entries below; each comes with its answer.
# compound, minimal effective dose
rows = [
    ("CC(C)OC(=O)CCNC1(c2ccccc2Cl)CCCCC1=O (stereo unspecified)", "37 mg/kg"),
    ("CCS(=O)(=O)CCNC1(c2ccccc2Cl)CCCCC1=O (stereo unspecified)", "> 200 mg/kg"),
    ("O=C(CCNC1(c2ccccc2Cl)CCCCC1=O)Oc1ccccc1 (stereo unspecified)", "> 200 mg/kg"),
    ("O=C1CCCCC1(NCCCN1CCCCC1)c1ccccc1Cl (stereo unspecified)", "130 mg/kg"),
    ("COC(=O)COCCNC1(c2ccccc2Cl)CCCCC1=O (stereo unspecified)", "> 200 mg/kg"),
    ("CCOC(=O)C(C)CCCNC1(c2ccccc2Cl)CCCCC1=O (stereo unspecified)", "55 mg/kg"),
]

What is its minimal effective dose for Rattus norvegicus? Entry: CNC(=O)CCCCNC1(c2ccccc2Cl)CCCCC1=O (stereo unspecified)
> 200 mg/kg

What is its minimal effective dose for Rattus norvegicus? Entry: CN(C)C(=O)CCNC1(c2ccccc2Cl)CCCCC1=O (stereo unspecified)
113 mg/kg

###

Known pIC50 of a selection of compounds
assayed-target: Glutamate NMDA receptor
test-details: Displacement of [3H] MK-801 from NMDA glutamate ion channel in Wistar rat brain membranes (minus cerebellum) after 3 hrs by scintillation counting analysis
Assay type: cell membranes
# pIC50 = -log10(concentration in molar units)

# compound, readout-name, observed-value
data = [
    ("COCCOC(=O)CCCCNC1(c2ccccc2Cl)CCCCC1=O (configuration not stated)", "pIC50", 4.72),
    ("CCOC(=O)C(C)CCCNC1(c2ccccc2Cl)CCCCC1=O (configuration not stated)", "pIC50", 3.97),
    ("CCNC(=O)CCNC1(c2ccccc2Cl)CCCCC1=O (configuration not stated)", "pIC50", 3.03),
    ("CCOC(=O)CCOCCNC1(c2ccccc2Cl)CCCCC1=O (configuration not stated)", "pIC50", 4.06),
    ("CC(C)OC(=O)CNC1(c2ccccc2Cl)CCCCC1=O (configuration not stated)", "pIC50", 4.35),
    ("COC(=O)C(C)(C)CCCNC1(c2ccccc2Cl)CCCCC1=O (configuration not stated)", "pIC50", 3.90),
    ("COC(=O)CNC1(c2ccccc2Cl)CCCCC1=O (configuration not stated)", "pIC50", 3.51),
    ("O=C1CCCCC1(NCCCN1CCCCC1)c1ccccc1Cl (configuration not stated)", "pIC50", 4.39),
    ("COC(=O)CCCCCCNC1(c2ccccc2Cl)CCCCC1=O (configuration not stated)", "pIC50", 4.29),
    ("NC(=O)CCNC1(c2ccccc2Cl)CCCCC1=O (configuration not stated)", "pIC50", 3.30),
]

Next compound, pIC50 to be filled in.
State the recorded pIC50 for this entry: COC(=O)CCCCCNC1(c2ccccc2Cl)CCCCC1=O (configuration not stated)
4.36
